- Test system: OVCAR-4 ovarian
- EXPERIMENT_DESCRIPTION: NCI tumour cell line growth inhibition, 48 h
RESULT_TYPE: TGI

# example entries with known answers
# MOLECULE, TEST_VALUE
rows = [
    ("O=C(OCc1ccccc1)c1nc2ccccc2n1S(=O)(=O)c1ccccc1", "> 100 µM"),
    ("CCNCCNc1cc(-c2ccc(Cl)c(Cl)c2)c(C#N)c2nc3ccccc3n12", "2.53 µM"),
    ("O=C(O)C(CCc1ccccc1)N1C(=O)c2ccccc2C1=O (stereo not given)", "> 100 µM"),
    ("[N-]=[N+]=Nc1cccc(-c2n[nH]c(Cl)cc2=O)c1", "> 100 µM"),
    ("Cc1ccc(S(=O)(=O)C2=C([Si](C)(C)C)C3CC2[C@@H]2C4C=CC(CC4)[C@H]32)cc1 (stereo not given in full)", "> 100 µM"),
    ("CCN(CC)c1c(C(=O)/C=C/c2ccc(F)cc2)c(-c2ccccc2)nn(C)c1=O", "20.5 µM"),
    ("N#CNC(=NCc1ccccc1)NCc1ccccc1", "> 100 µM"),
    ("COc1ccc2c(c1OC)C(=O)OC2C1c2c(c(N)c3c(c2OC)OCO3)CCN1C (stereo not given)", "> 100 µM"),
]

Given the molecule O=C1C2=C(C(c3ccccc3)=C1c1ccccc1)c1ccccc1C1(c3ccccc3)C2=C(O)C(c2ccccc2)=C1c1ccccc1 (stereo not given) , what is its reported TGI?
> 100 µM

Given O=c1[nH]c(=O)n(C2CC(O)C(CO)O2)cc1/C=C/Br (stereo not given) , state its recorded TGI.
> 100 µM

---

- System: SNB-19 CNS
- EXPERIMENT_DESCRIPTION: NCI tumour cell line growth inhibition, 48 h
RESULT_TYPE: TGI

The examples below pair each entry with its known result.
# COMPOUND, TEST_VALUE
records = [
    ("CCCCCC[n+]1noc(N)c1-c1ccc(-c2c(N)on[n+]2CCCCCC)cc1", "22.8 µg/mL"),
    ("COc1ccc2c(c1OC)C(=O)OC2C1c2c(c(N)c3c(c2OC)OCO3)CCN1C (stereo not given)", "9.25 µM"),
]

Look up TGI: "C/C(=N\Nc1nc2ccccc2o1)c1ccc2ccccc2n1"
> 100 µM

Recorded TGI of CC(=O)OC1COC(n2nc(N)nc2C)C(OC(C)=O)C1OC(C)=O (stereo not given) , please.
> 100 µM

// query TGI value for entry "O=c1oc2c([N+](=O)[O-])cc([N+](=O)[O-])cc2c2ccccc12"
> 100 µM

Report TGI for "CNC(=O)c1ccc(C(=O)NCCCCCN(O)C(=O)CCC(=O)NCCCCCN(O)C(=O)CCC(=O)NCCCCCN(O)C(C)=O)c(O)c1O" please.
> 100 µM

Name the reported TGI value associated with the compound COc1cc(Br)c(CC2C3=C(CCN2C(=O)C2CCC2)CC2(CC3)OCCO2)cc1O (stereo not given)
> 100 µM

Which TGI value belongs to "COc1ccc(/C=C/C(=O)c2sc(Nc3ccc([N+](=O)[O-])cc3)nc2C)cc1" ?
> 100 µM

Looking for the measured TGI of "COc1ccc(CCc2nc3cc(-c4c(C)noc4C)ccc3n2CCN2CCOCC2)cc1" , can you help?
> 100 µM

Requested field: TGI. Item: COC(=O)c1ccc(C2SC(C)C(=O)N2NC(=O)C(O)c2ccccc2)cc1 (stereo not given)
> 100 µM

---

- System: K-562 leukemia
- EXPERIMENT_DESCRIPTION: NCI tumour cell line growth inhibition, 48 h
Listing of recorded TGI by entry.

Entry under review: CCOC(=O)C(C(=O)OCC)C1C=CCC2c3ccccc3COCC21 (stereo not drawn) . Reported TGI?
> 100 µM

Need TGI of "COc1ccc(-c2csc(=[N+]3CCCCC3)s2)cc1" , thanks.
24.2 µM

Need TGI of "Fc1ccc(-c2ncn(C3CCNCC3)c2-c2ccnc(Oc3cccc(C(F)(F)F)c3)n2)cc1" , thanks.
9.12 µM

What measured TGI goes with "CCN(CC)C(=S)SS(=O)(=O)c1ccc(N)cc1" ?
> 100 µM

Look at this compound and give its reported TGI. Cc1ccc(S(=O)(=O)C2=C([Si](C)(C)C)C3CC2[C@@H]2C4C=CC(CC4)[C@H]32)cc1 (stereo partly drawn)
> 100 µM

Item under review: COc1ccc2c(c1)C(=O)C1(C2)[C@H](c2ccccc2)C2C(=O)c3cc(OC)ccc3C2[C@H]1c1ccccc1 (stereo partly drawn) . Reported TGI?
> 100 µM

Please give the measured TGI for this compound: "COc1ccc(CCc2nc3cc(-c4c(C)noc4C)ccc3n2CCN2CCOCC2)cc1"
> 100 µM

Data request, read-out TGI, for "CCOC(=O)c1cc(C)n(CN(CCO)Cn2nc(C(=O)OCC)cc2C)n1"
78.3 µM

---

- System: SR leukemia
- EXPERIMENT_DESCRIPTION: NCI tumour cell line growth inhibition, 48 h; in the data active means GI50 below about 0.43 µM; inactive means the rest
Outcome field: choose from active, inactive

# COMPOUND, CLASS_ASSIGNMENT
data = [
    ("CCCCCCCCn1ccc2cc(NC(=O)Cn3cc(CN4CCN(CC)CC4)nn3)ccc21", "inactive"),
    ("O=c1cc(/C=C/c2ccc(O)c(O)c2)cc(/C=C/c2ccc(O)c(O)c2)o1", "inactive"),
    ("C=C(C)[C@@H]1CC[C@]2(C(N)=O)CC[C@]3(C)[C@H](CC[C@@H]4[C@@]5(C)C/C(=C/c6cccnc6)C(=O)C(C)(C)[C@@H]5CC[C@]43C)[C@@H]12", "inactive"),
    ("O=C1c2ccccc2S(=O)(=O)N1CSC(=S)N1CCOCC1", "inactive"),
    ("COc1ccc2nc3c(n2c1)C(=O)C(=O)c1ccccc1-3", "inactive"),
]

Hey, what did the test say about O=C1C=CC2(NN=C(c3ccccc3)N2c2ccccc2)c2cccc(O)c21 (centres undefined) ?
inactive

Fill in: this test's call for COC(=O)C(C)NP(=O)(OCc1ccc(Cn2cnc3c(N)ncnc32)cc1)Oc1ccccc1 (centres undefined) is ___
inactive

So what was the verdict on "O=c1[nH]nc(-c2nn(-c3ccc(Cl)cc3)cc2O)o1" in this test?
active

Can you look up the reported call for "CCOC(=O)c1cc(C(=O)c2cc(OC)c(OC)c(OC)c2)n2nc(C)ccc12" for me?
active

---

Measured GI50 values are reported for all entries that follow.
- System: MDA-MB-231 breast
- EXPERIMENT_DESCRIPTION: NCI tumour cell line growth inhibition, 48 h

# COMPOUND, TARGET_SYSTEM, GI50
data = [
    ("CCNC(=O)N1CCc2c(Cl)c3c(c(OC)c2[C@@H]1[C@H]1OCc2c1ccc(OC)c2OC)OCCO3", "MDA-MB-231 breast", "4.95 µM"),
    ("COc1ccc2c(c1OC)C(=O)OC2C1c2c(c(N)c3c(c2OC)OCO3)CCN1C (configuration not stated)", "MDA-MB-231 breast", "3.15 µM"),
    ("COc1ccc(C(O)c2cc3c(N)c(C(=O)Nc4ccccc4)sc3nc2C)cc1 (configuration not stated)", "MDA-MB-231 breast", "0.0728 µM"),
    ("COc1cc2c3c(n(CCCN)c(=O)c2cc1OC)-c1ccc(N(C)C)cc1C3=O", "MDA-MB-231 breast", "11.9 µM"),
    ("O=c1[nH]nc(-c2nn(-c3ccc(Cl)cc3)cc2O)o1", "MDA-MB-231 breast", "4.56 µM"),
    ("O=C(Nc1ccccc1C(=O)N/N=C(\\c1ccccc1)c1ccccn1)c1ccccc1", "MDA-MB-231 breast", "0.478 µM"),
]

Here is the next item to consider.
Reported GI50, compound "COc1cc2nccc(Oc3ccc(NC(=O)C4(C(=O)Nc5ccc(F)cc5)CC4)cc3)c2cc1OC(=O)c1ccc(N)cc1" : ____
1.98 µM

---

- Tested on: HT29 colon
- EXPERIMENT_DESCRIPTION: NCI tumour cell line growth inhibition, 48 h
RESULT_TYPE: TGI

# COMPOUND, TGI
rows = [
    ("COc1ccc(CCc2nc3cc(-c4c(C)noc4C)ccc3n2CCN2CCOCC2)cc1", "> 100 µM"),
]

Would you mind telling me what TGI value was observed for CN1CCC(CN2c3ccccc3Sc3ccccc32)C1 (stereo unspecified) ?
23.8 µM

Report TGI for "NC1(P(=O)(O)O)CCCCC1" please.
> 100 µM

Find the recorded TGI belonging to CC1C2CC(CC23OCC(CCl)O3)C1(C)C (stereo unspecified) and report it.
> 100 µM

TGI for "O=C(NCCn1ccnn1)Nc1ccccc1" ?
> 100 µM

GET /values?readout=TGI&item= CCCCCCCC/C=C/CCCCCCCC(=O)N(O)C1CC(n2cc(C)c(=O)[nH]c2=O)OC1CO (stereo unspecified)
22.4 µM
